Species: Rattus norvegicus
Assay: Open TG-GATES - Regimen: Single
Assay type: toxicity, organism-based, Sprague-Dawley
Design: regimen Single, gender Male, age 6 weeks
Conditions: in vivo, po, 300 mg/kg, 9 h, tissue Plasma, route gavage, dose level Middle
attributeMeasured: BUN (mg/dL)
Hi! Could you send only the number? It should be in mg/dL, unit omitted.

CNC(=C[N+](=O)[O-])NCCSCc1ccc(CN(C)C)o1: 9.8
COC(=O)C1=C(C)NC(C)=C(C(=O)OC)C1c1ccccc1[N+](=O)[O-]: 26.8

input: Quick check: BUN of CN/C(=N/CCSCc1nc[nH]c1C)NC#N ?
output: 9.8

###

Organism: Rattus norvegicus
Experiment: Open TG-GATES - Regimen: Daily Repeat
Type: toxicity, organism-based, Sprague-Dawley
Parameters: regimen Daily Repeat, gender Male, age 6 weeks
Conditions: in vivo, po, 300 mg/kg, […], route gavage, dose level Middle, time 14 day
attributeMeasured: TERMINAL_BW (g)
Hi! Could you send only the number? It should be in g, unit omitted.

Cc1nnc2n1-c1ccc(Cl)cc1C(c1ccccc1Cl)=NC2: 306.6
O=C(OC[C@H]1O[C@@H](OC(=O)c2cc(O)c(O)c(OC(=O)c3cc(O)c(O)c(O)c3)c2)[C@H](OC(=O)c2cc(O)c(O)c(OC(=O)c3cc(O)c(O)c(O)c3)c2)[C@@H](OC(=O)c2cc(O)c(O)c(OC(=O)c3cc(O)c(O)c(O)c3)c2)[C@@H]1OC(=O)c1cc(O)c(O)c(OC(=O)c2cc(O)c(O)c(O)c2)c1)c1cc(O)c(O)c(OC(=O)c2cc(O)c(O)c(O)c2)c1: 315.8
CN/C(=N/CCSCc1nc[nH]c1C)NC#N: 317.5
COC(=O)C1=C(C)NC(C)=C(C(=O)OC)C1c1ccccc1[N+](=O)[O-]: 319.9
CCOc1ccc(NC(C)=O)cc1: 306

Moving on to the next compound.
input: Quick check: TERMINAL_BW of CNC(=C[N+](=O)[O-])NCCSCc1ccc(CN(C)C)o1 ?
output: 309.4

###

Species: Rattus norvegicus
Experiment: Open TG-GATES - Regimen: Single
Format: toxicity, organism-based, Sprague-Dawley
Design: regimen Single, gender Male, age 6 weeks
Settings: in vivo, po, 100 mg/kg, 24 h, tissue Plasma, route gavage, dose level Low
attributeMeasured: AST (IU/L)
Hi! Could you send only the number? It should be in IU/L, unit omitted.

Use these answered entries as a reference point.
O=C(OC[C@H]1O[C@@H](OC(=O)c2cc(O)c(O)c(OC(=O)c3cc(O)c(O)c(O)c3)c2)[C@H](OC(=O)c2cc(O)c(O)c(OC(=O)c3cc(O)c(O)c(O)c3)c2)[C@@H](OC(=O)c2cc(O)c(O)c(OC(=O)c3cc(O)c(O)c(O)c3)c2)[C@@H]1OC(=O)c1cc(O)c(O)c(OC(=O)c2cc(O)c(O)c(O)c2)c1)c1cc(O)c(O)c(OC(=O)c2cc(O)c(O)c(O)c2)c1: 63
CN/C(=N/CCSCc1nc[nH]c1C)NC#N: 64.4
Cc1nnc2n1-c1ccc(Cl)cc1C(c1ccccc1Cl)=NC2: 68.2
CNC(=C[N+](=O)[O-])NCCSCc1ccc(CN(C)C)o1: 65.6

Moving on to the next molecule.
input: Quick check: AST of COC(=O)C1=C(C)NC(C)=C(C(=O)OC)C1c1ccccc1[N+](=O)[O-] ?
output: 70.8

###

Species: Rattus norvegicus
Assay: Open TG-GATES - Regimen: Single
Assay type: toxicity, organism-based, Sprague-Dawley
Design: regimen Single, gender Male, age 6 weeks
Conditions: in vivo, po, 100 mg/kg, 9 h, tissue Plasma, route gavage, dose level Low
attributeMeasured: LDH (IU/L)
Hi! Could you send only the number? It should be in IU/L, unit omitted.

Use these answered entries as a reference point.
CNC(=C[N+](=O)[O-])NCCSCc1ccc(CN(C)C)o1 [RANITIDINE]: 144.4
Cc1nnc2n1-c1ccc(Cl)cc1C(c1ccccc1Cl)=NC2 [TRIAZOLAM]: 68.8
COC(=O)C1=C(C)NC(C)=C(C(=O)OC)C1c1ccccc1[N+](=O)[O-] [NIFEDIPINE]: 76
O=C(OC[C@H]1O[C@@H](OC(=O)c2cc(O)c(O)c(OC(=O)c3cc(O)c(O)c(O)c3)c2)[C@H](OC(=O)c2cc(O)c(O)c(OC(=O)c3cc(O)c(O)c(O)c3)c2)[C@@H](OC(=O)c2cc(O)c(O)c(OC(=O)c3cc(O)c(O)c(O)c3)c2)[C@@H]1OC(=O)c1cc(O)c(O)c(OC(=O)c2cc(O)c(O)c(O)c2)c1)c1cc(O)c(O)c(OC(=O)c2cc(O)c(O)c(O)c2)c1 [TANNIC ACID]: 101.4

Moving on to the next compound.
input: Quick check: LDH of CN/C(=N/CCSCc1nc[nH]c1C)NC#N [CIMETIDINE] ?
output: 137.4

###

Species: Rattus norvegicus
Experiment: Open TG-GATES - Regimen: Daily Repeat
Format: toxicity, organism-based, Sprague-Dawley
Set-up: regimen Daily Repeat, gender Male, age 6 weeks
Details: in vivo, po, 1000 mg/kg, […], route gavage, dose level High, time 7 day
This section presents compounds with their documented TERMINAL_BW values.
Hi! Could you send only the number? It should be in g, unit omitted.

Cc1nnc2n1-c1ccc(Cl)cc1C(c1ccccc1Cl)=NC2 [TRIAZOLAM]: 254.6
CN/C(=N/CCSCc1nc[nH]c1C)NC#N [CIMETIDINE]: 263.6
O=C(OC[C@H]1O[C@@H](OC(=O)c2cc(O)c(O)c(OC(=O)c3cc(O)c(O)c(O)c3)c2)[C@H](OC(=O)c2cc(O)c(O)c(OC(=O)c3cc(O)c(O)c(O)c3)c2)[C@@H](OC(=O)c2cc(O)c(O)c(OC(=O)c3cc(O)c(O)c(O)c3)c2)[C@@H]1OC(=O)c1cc(O)c(O)c(OC(=O)c2cc(O)c(O)c(O)c2)c1)c1cc(O)c(O)c(OC(=O)c2cc(O)c(O)c(O)c2)c1 [TANNIC ACID]: 253.1
CCOc1ccc(NC(C)=O)cc1 [PHENACETIN]: 234.8

input: Quick check: TERMINAL_BW of COC(=O)C1=C(C)NC(C)=C(C(=O)OC)C1c1ccccc1[N+](=O)[O-] [NIFEDIPINE] ?
output: 238.1

input: Quick check: TERMINAL_BW of CNC(=C[N+](=O)[O-])NCCSCc1ccc(CN(C)C)o1 [RANITIDINE] ?
output: 264.9

###

Species: Rattus norvegicus
Experiment: Open TG-GATES - Regimen: Daily Repeat
Type: toxicity, organism-based, Sprague-Dawley
Set-up: regimen Daily Repeat, gender Male, age 6 weeks
Conditions: in vivo, po, 0 mg/kg, […], tissue Kidney, route gavage, dose level Control, time 14 day
attributeMeasured: KIDNEY_R (g)
Hi! Could you send only the number? It should be in g, unit omitted.

CC(C)NNC(=O)c1ccncc1: 1.1

Moving on to the next compound.
input: Quick check: KIDNEY_R of O=C(OC[C@H]1O[C@@H](OC(=O)c2cc(O)c(O)c(OC(=O)c3cc(O)c(O)c(O)c3)c2)[C@H](OC(=O)c2cc(O)c(O)c(OC(=O)c3cc(O)c(O)c(O)c3)c2)[C@@H](OC(=O)c2cc(O)c(O)c(OC(=O)c3cc(O)c(O)c(O)c3)c2)[C@@H]1OC(=O)c1cc(O)c(O)c(OC(=O)c2cc(O)c(O)c(O)c2)c1)c1cc(O)c(O)c(OC(=O)c2cc(O)c(O)c(O)c2)c1 ?
output: 1.2

###

Organism: Rattus norvegicus
Test: Open TG-GATES - Regimen: Daily Repeat
Type: toxicity, organism-based, Sprague-Dawley
Set-up: regimen Daily Repeat, gender Male, age 6 weeks
Settings: in vivo, po, 300 mg/kg, […], route gavage, dose level Middle, time 7 day
This section presents compounds with their documented TERMINAL_BW values.
Hi! Could you send only the number? It should be in g, unit omitted.

Cc1nnc2n1-c1ccc(Cl)cc1C(c1ccccc1Cl)=NC2 [TRIAZOLAM]: 262.7

input: Quick check: TERMINAL_BW of CCOc1ccc(NC(C)=O)cc1 [PHENACETIN] ?
output: 262.8

input: Quick check: TERMINAL_BW of COC(=O)C1=C(C)NC(C)=C(C(=O)OC)C1c1ccccc1[N+](=O)[O-] [NIFEDIPINE] ?
output: 254

input: Quick check: TERMINAL_BW of CNC(=C[N+](=O)[O-])NCCSCc1ccc(CN(C)C)o1 [RANITIDINE] ?
output: 260.6

input: Quick check: TERMINAL_BW of CN/C(=N/CCSCc1nc[nH]c1C)NC#N [CIMETIDINE] ?
output: 259.4

input: Quick check: TERMINAL_BW of O=C(OC[C@H]1O[C@@H](OC(=O)c2cc(O)c(O)c(OC(=O)c3cc(O)c(O)c(O)c3)c2)[C@H](OC(=O)c2cc(O)c(O)c(OC(=O)c3cc(O)c(O)c(O)c3)c2)[C@@H](OC(=O)c2cc(O)c(O)c(OC(=O)c3cc(O)c(O)c(O)c3)c2)[C@@H]1OC(=O)c1cc(O)c(O)c(OC(=O)c2cc(O)c(O)c(O)c2)c1)c1cc(O)c(O)c(OC(=O)c2cc(O)c(O)c(O)c2)c1 [TANNIC ACID] ?
output: 250.4
